Target Entity: Human Fc (human)
Assay Notes: ELISA; negative control

>  <Binder>
370_F02 (antibody, V domains shown) VH: EVQLLESGGGLVQPGGSLRLSCAASGFTFDSYGMNWVRQAPGKGLEWVANINYNGGYTGYADSVKGRFTISRDNSKNTLYLQMNSLRAEDTAVYYCARGATWHDTHLDYWGQGTLVTVSS VL: DIQMTQSPSSLSASVGDRVTITCRASQSILSYLNWYQQKPGKAPKLLIYAVTSRHSGVPSRFSGSGSGTDFTLTISSLQPEDFATYYCQQSYDSPLTFGGGTKVEIK

>  <Unit Label>
OD

>  <optical density>
0.376

$$$$
>  <Binder>
372_H11 (antibody, V domains shown) VH: EVQLLESGGGLVQPGGSLRLSCAASGFTFSSYGMHWVRQAPGKGLEWVAGINYNGGYTSYADSVKGRFTISRDNSKNTLYLQMNSLRAEDTAVYYCARGATWHDTHLDYWGQGTLVTVSS VL: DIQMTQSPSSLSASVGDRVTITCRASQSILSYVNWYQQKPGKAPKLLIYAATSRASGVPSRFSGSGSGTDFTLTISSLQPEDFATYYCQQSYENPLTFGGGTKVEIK

>  <Unit Label>
OD

>  <optical density>
0.392

$$$$
>  <Binder>
365_D02 (antibody, V domains shown) VH: EVQLLESGGGLVQPGGSLRLSCAASGFTFSSYSMHWVRQAPGKGLEWVASINYNGGYTSYADSVKGRFTISRDNSKNTLYLQMNSLRAEDTAVYYCARGATWHDTHLDYWGQGTLVTVSS VL: DIQMTQSPSSLSASVGDRVTITCRASQSIVTYLNWYQQKPGKAPKLLIYAATSLASGVPSRFSGSGSGTDFTLTISSLQPEDFATYYCQQSYDNPLTFGGGTKVEIK

>  <Unit Label>
OD

>  <optical density>
0.486

$$$$
>  <Binder>
365_G01 (antibody, V domains shown) VH: EVQLLESGGGLVQPGGSLRLSCAASGFTFDSYGMNWVRQAPGKGLEWVAGINYNSGYKSYADSVKGRFTISRDNSKNTLYLQMNSLRAEDTAVYYCARSANWHDTALDYWGQGTLVTVSS VL: DIQMTQSPSSLSASVGDRVTITCRASQSILTYVNWYQQKPGKAPKLLIYATTSRASGVPSRFSGSGSGTDFTLTISSLQPEDFATYYCQQSYDSPLTFGGGTKVEIK

>  <Unit Label>
OD

>  <optical density>
0.39

$$$$
>  <Binder>
365_E05 (antibody, V domains shown) VH: EVQLLESGGGLVQPGGSLRLSCAASGFTFSSYGMHWVRQAPGKGLEWVAGINYNGGYTSYADSVKGRFTISRDNSKNTLYLQMNSLRAEDTAVYYCARSANWHDTALDYWGQGTLVTVSS VL: DIQMTQSPSSLSASVGDRVTITCRASQSIVSYVNWYQQKPGKAPKLLIYAATSLASGVPSRFSGSGSGTDFTLTISSLQPEDFATYYCQQSYDNPLTFGGGTKVEIK

>  <Unit Label>
OD

>  <optical density>
0.379

$$$$
